EXPERIMENTAL_TARGET: HER2 (A775_G776insYVMA) expressing Ba/F3 stable cell line (Homo sapiens, UniProt P04626, DUP772-775, cells depend on it)
Sequence (P04626 with tags, fused parts or gaps DUP772-775): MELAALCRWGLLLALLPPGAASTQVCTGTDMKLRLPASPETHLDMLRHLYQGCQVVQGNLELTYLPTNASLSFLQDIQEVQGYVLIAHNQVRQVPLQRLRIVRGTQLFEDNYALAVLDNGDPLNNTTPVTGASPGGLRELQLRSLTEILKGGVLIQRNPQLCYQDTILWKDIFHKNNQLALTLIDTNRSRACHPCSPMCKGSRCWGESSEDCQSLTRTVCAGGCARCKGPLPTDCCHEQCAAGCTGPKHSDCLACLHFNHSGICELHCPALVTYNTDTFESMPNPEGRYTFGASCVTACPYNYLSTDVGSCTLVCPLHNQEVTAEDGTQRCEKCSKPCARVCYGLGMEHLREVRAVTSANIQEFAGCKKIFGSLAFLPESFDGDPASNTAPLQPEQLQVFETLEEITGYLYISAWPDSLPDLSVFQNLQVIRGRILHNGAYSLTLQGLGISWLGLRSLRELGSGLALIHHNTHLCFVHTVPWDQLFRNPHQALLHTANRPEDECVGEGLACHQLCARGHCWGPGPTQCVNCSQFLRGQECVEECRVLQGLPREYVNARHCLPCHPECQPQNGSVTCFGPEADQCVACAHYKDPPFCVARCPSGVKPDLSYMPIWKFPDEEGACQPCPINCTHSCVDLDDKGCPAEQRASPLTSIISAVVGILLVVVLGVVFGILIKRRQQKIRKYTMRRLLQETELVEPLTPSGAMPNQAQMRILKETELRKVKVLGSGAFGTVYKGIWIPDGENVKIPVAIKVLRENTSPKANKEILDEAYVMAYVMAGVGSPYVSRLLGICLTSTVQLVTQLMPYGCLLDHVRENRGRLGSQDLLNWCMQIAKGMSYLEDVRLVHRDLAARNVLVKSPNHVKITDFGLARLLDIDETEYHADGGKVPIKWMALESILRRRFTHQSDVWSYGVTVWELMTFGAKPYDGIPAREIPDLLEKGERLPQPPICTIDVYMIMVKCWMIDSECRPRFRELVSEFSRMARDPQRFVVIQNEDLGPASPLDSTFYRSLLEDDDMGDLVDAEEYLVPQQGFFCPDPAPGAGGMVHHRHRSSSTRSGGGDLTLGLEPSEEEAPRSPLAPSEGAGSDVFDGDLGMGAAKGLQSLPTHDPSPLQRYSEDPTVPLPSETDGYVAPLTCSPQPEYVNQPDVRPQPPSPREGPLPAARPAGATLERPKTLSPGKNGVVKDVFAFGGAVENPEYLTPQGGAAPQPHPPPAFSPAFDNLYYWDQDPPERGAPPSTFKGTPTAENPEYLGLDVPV
TEST_SUMMARY: Cellular proliferation (Alamar Blue) assay, HER2 YVMA Ba/F3
Type: cell-based
MEASUREMENT_PARAMETERS: HER2 A775_G776insYVMA Ba/F3, 72 hr, read-out: YVMA IC50
Counter-ions that a name gives are not always drawn.
Listed here: items and their measured GI50.
I only need the number, in nM, no unit after it.

Some molecules with known GI50 results, for comparison:
# MOLECULE, GI50, nM
data = [
    ("C=CC(=O)Nc1cccc(N2C(=O)N(Cc3ccccc3)Cc3cnc(Nc4cnn(C)c4)nc32)c1", 9.9),
    ("C=CC(=O)Nc1cccc(N2C(=O)N(c3ccccc3)Cc3cnc(Nc4cn(C)nc4F)nc32)c1", 68),
    ("C=CC(=O)Nc1cccc(N2C(=O)N(c3ccccc3)Cc3cnc(Nc4cn(C(C)(C)C#N)nc4Cl)nc32)c1 [Compound 123, trifluoroacetate salt]", 319),
    ("C=CC(=O)Nc1cccc(N2C(=O)N(Cc3ccccc3)Cc3cnc(Nc4ccc(N5CCC(N(C)C)CC5)nc4)nc32)c1", 575),
    ("COC/C=C/C(=O)Nc1cccc(N2C(=O)N(Cc3ccccc3)Cc3cnc(Nc4cn(C)nc4F)nc32)c1", 740),
]

Documented GI50 of C=CC(=O)Nc1ccc(F)c(N2C(=O)N(c3ccccc3)Cc3cnc(Nc4cn(C)nc4Cl)nc32)c1 [Compound 128, trifluoroacetate salt] : 24

Documented GI50 of "Cn1cc(Nc2ncc3c(n2)N(c2cccc(NC(=O)/C=C/CN4CCCCC4)c2)C(=O)N(Cc2ccccc2)C3)c(Cl)n1" : 38

Documented GI50 of "C=CC(=O)Nc1cccc(N2C(=O)N(Cc3ccccc3)Cc3cnc(Nc4cn(C)nc4F)nc32)c1" : 137

Documented GI50 of "C/C=C/C(=O)Nc1cccc(N2C(=O)N(c3ccccc3)Cc3cnc(Nc4cn(C)nc4Cl)nc32)c1" : 158

Documented GI50 of "CN(C)C/C=C/C(=O)Nc1cccc(N2C(=O)N(c3ccccc3)Cc3cnc(Nc4cn(C5CCN(C)CC5)nc4Cl)nc32)c1" : 995

---

EXPERIMENTAL_TARGET: EGFR (T790M/L858R) (Homo sapiens, UniProt P00533, L858R/T790M)
Construct: GST
Sequence (P00533 25-1210 T790M/L858R): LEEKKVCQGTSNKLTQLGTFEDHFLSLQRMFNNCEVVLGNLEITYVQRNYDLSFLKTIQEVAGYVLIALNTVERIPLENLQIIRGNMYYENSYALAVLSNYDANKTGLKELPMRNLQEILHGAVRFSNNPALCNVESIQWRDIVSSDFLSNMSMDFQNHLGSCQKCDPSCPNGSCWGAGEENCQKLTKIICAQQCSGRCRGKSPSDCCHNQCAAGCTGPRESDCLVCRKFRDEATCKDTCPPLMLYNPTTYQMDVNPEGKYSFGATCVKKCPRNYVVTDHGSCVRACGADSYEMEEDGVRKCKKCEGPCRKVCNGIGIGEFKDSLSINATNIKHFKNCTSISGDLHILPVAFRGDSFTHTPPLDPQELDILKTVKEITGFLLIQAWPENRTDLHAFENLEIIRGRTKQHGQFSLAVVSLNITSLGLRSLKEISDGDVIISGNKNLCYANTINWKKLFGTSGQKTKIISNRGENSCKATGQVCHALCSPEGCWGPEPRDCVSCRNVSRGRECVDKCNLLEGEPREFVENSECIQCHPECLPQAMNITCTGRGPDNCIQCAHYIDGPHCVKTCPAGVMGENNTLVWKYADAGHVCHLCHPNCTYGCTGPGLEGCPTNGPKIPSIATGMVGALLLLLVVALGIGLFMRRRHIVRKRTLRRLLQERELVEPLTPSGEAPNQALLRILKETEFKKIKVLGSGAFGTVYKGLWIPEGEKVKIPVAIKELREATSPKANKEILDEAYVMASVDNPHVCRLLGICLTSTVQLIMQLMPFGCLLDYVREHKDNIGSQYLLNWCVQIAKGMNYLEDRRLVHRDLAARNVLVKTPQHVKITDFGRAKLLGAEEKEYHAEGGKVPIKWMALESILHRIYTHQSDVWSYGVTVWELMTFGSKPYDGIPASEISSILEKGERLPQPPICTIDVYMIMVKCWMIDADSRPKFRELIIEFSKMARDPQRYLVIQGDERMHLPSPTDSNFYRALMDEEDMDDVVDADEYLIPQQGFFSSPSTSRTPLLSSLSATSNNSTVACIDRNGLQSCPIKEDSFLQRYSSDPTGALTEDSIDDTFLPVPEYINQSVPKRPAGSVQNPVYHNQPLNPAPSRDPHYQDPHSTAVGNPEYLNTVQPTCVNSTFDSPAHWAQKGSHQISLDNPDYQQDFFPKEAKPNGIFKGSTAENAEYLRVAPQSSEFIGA
TEST_SUMMARY: EGFR L858R/T790M enzyme inhibition assay (HTRF)
MEASUREMENT_PARAMETERS: 5 μM ATP, 60 min, read-out: EGFR_L858R T790M_IC50_nM
Listed here: items and their measured IC50.

# COMPOUND, IC50
rows = [
    ("CN(C)C/C=C/C(=O)Nc1cccc(N2C(=O)N(Cc3ccc(F)cc3)Cc3cnc(Nc4cnn(C)c4)nc32)c1", "2 nM"),
]

Documented IC50 of "CN(C)C/C=C/C(=O)Nc1cccc(N2C(=O)N(Cc3ccccc3)Cc3cnc(Nc4cnn(C)c4)nc32)c1" : 0.6 nM

Documented IC50 of "CN(C)C/C=C/C(=O)Nc1cccc(N2C(=O)N(c3ccc(F)cc3)Cc3cnc(Nc4cnn(C)c4)nc32)c1" : 2.5 nM

Documented IC50 of C=CC(=O)NC1CCCC(N2C(=O)N(Cc3ccccc3)Cc3cnc(Nc4ncc(C)s4)nc32)C1 (stereo not shown) : 164 nM

Documented IC50 of "COCCn1cc(Nc2ncc3c(n2)N(c2cccc(NC(=O)/C=C/CN(C)C)c2)C(=O)N(Cc2ccccc2)C3)cn1" : 1 nM

Documented IC50 of "CN(C)C/C=C/C(=O)Nc1cccc(N2C(=O)N(Cc3ccccc3)Cc3cnc(Nc4cnn(C5CC5)c4)nc32)c1" : 6 nM

Documented IC50 of "C=CC(=O)Nc1cccc(N2C(=O)N(Cc3ccccc3)Cc3cnc(Nc4cnn(C)c4)nc32)c1" : 0.4 nM

Documented IC50 of C=CC(=O)N1CC[C@@H](N2C(=O)N(Cc3ccccc3)Cc3cnc(Nc4cn(C)nc4Cl)nc32)C1 (single isomer, unassigned) : 446 nM

Documented IC50 of "CN(C)C/C=C/C(=O)N1CC[C@H](N2C(=O)N(c3ccccc3)Cc3cnc(Nc4cn(C)nc4Cl)nc32)C1" : ≥ 10000 nM

Documented IC50 of "CN(C)C/C=C/C(=O)Nc1cccc(N2C(=O)N(c3ccccc3)Cc3cnc(Nc4cn(C)nc4Cl)nc32)c1" : 7.8 nM

Documented IC50 of C=CC(=O)NC1CCCC(N2C(=O)N(Cc3ccccc3)Cc3cnc(Nc4cnn(C)c4)nc32)C1 (stereo not shown) : 53 nM

Documented IC50 of "CN(C)C/C=C/C(=O)Nc1cccc(N2C(=O)N(Cc3ccccc3)Cc3cnc(Nc4ccc5c(c4)cc(C#N)n5C)nc32)c1" : 9 nM

Documented IC50 of "CN(C)C/C=C/C(=O)Nc1cccc(N2C(=S)N(c3ccccc3)Cc3cnc(Nc4cn(C)nc4Cl)nc32)c1" : 8 nM

Documented IC50 of "Cn1cc(Nc2ncc3c(n2)N(c2cccc(NC(=O)/C=C/Cl)c2)C(=O)N(Cc2ccccc2)C3)cn1" : 0.4 nM

Documented IC50 of "Cc1cnc(Nc2ncc3c(n2)N(c2cccc(NC(=O)/C=C/CN(C)C)c2)C(=O)N(Cc2ccccc2)C3)s1" : 6 nM

Documented IC50 of "Cc1nn(CC(F)(F)F)cc1Nc1ncc2c(n1)N(c1cccc(NC(=O)/C=C/CN(C)C)c1)C(=O)N(Cc1ccccc1)C2" : 9 nM

Documented IC50 of CN(C)C/C=C/C(=O)NC1CCCC(N2C(=O)N(Cc3ccccc3)Cc3cnc(Nc4cnn(C)c4)nc32)C1 (stereo not shown) : 281 nM

Documented IC50 of "C=CC(=O)Nc1cccc(N2C(=O)N(Cc3ccccc3)Cc3cnc(Nc4ccc(N5CCOCC5)nc4)nc32)c1" : 2.6 nM

Documented IC50 of "CN(C)C/C=C/C(=O)Nc1cccc(N2C(=O)N(Cc3ccccc3)Cc3cnc(Nc4cn(C)nn4)nc32)c1" : 5 nM

Documented IC50 of "CN(C)C/C=C/C(=O)Nc1cccc(N2C(=O)N(Cc3ccccc3)Cc3cnc(Nc4cn(C)nc4Cl)nc32)c1" : 1 nM

Documented IC50 of Cc1cc(Nc2ncc3c(n2)N(C2CCCC(NC(=O)/C=C/CN(C)C)C2)C(=O)N(Cc2ccccc2)C3)sn1 (stereo not shown) : 82 nM

---

EXPERIMENTAL_TARGET: HER2 (A775_G776insYVMA) expressing Ba/F3 stable cell line (Homo sapiens, UniProt P04626, DUP772-775, cells depend on it)
TEST_SUMMARY: Cellular proliferation (Alamar Blue) assay, HER2 YVMA Ba/F3
Assay type: cell-based
MEASUREMENT_PARAMETERS: HER2 A775_G776insYVMA Ba/F3, 72 hr, read-out: YVMA IC50
Listed here: items and their measured GI50.
# answer = value followed by unit

# COMPOUND, GI50
data = [
    ("CC(C)n1cc(Nc2ncc3c(n2)N(c2cccc(NC(=O)/C=C/CN(C)C)c2)C(=O)N(Cc2ccccc2)C3)cn1 [Compound 9]", "38 nM"),
]

Now for the compound whose GI50 we want.
Documented GI50 of CN(C)C/C=C/C(=O)Nc1ccc(F)c(N2C(=O)N(Cc3ccccc3)Cc3cnc(Nc4cn(C)nc4Cl)nc32)c1 [Compound 85] : 38 nM

---

Listed here: items and their measured GI50.
EXPERIMENTAL_TARGET: EGFR (A767_dupASV) expressing Ba/F3 stable cell line (Homo sapiens, UniProt P00533, DUP767-769, cells depend on it)
Sequence (P00533 with tags, fused parts or gaps DUP767-769): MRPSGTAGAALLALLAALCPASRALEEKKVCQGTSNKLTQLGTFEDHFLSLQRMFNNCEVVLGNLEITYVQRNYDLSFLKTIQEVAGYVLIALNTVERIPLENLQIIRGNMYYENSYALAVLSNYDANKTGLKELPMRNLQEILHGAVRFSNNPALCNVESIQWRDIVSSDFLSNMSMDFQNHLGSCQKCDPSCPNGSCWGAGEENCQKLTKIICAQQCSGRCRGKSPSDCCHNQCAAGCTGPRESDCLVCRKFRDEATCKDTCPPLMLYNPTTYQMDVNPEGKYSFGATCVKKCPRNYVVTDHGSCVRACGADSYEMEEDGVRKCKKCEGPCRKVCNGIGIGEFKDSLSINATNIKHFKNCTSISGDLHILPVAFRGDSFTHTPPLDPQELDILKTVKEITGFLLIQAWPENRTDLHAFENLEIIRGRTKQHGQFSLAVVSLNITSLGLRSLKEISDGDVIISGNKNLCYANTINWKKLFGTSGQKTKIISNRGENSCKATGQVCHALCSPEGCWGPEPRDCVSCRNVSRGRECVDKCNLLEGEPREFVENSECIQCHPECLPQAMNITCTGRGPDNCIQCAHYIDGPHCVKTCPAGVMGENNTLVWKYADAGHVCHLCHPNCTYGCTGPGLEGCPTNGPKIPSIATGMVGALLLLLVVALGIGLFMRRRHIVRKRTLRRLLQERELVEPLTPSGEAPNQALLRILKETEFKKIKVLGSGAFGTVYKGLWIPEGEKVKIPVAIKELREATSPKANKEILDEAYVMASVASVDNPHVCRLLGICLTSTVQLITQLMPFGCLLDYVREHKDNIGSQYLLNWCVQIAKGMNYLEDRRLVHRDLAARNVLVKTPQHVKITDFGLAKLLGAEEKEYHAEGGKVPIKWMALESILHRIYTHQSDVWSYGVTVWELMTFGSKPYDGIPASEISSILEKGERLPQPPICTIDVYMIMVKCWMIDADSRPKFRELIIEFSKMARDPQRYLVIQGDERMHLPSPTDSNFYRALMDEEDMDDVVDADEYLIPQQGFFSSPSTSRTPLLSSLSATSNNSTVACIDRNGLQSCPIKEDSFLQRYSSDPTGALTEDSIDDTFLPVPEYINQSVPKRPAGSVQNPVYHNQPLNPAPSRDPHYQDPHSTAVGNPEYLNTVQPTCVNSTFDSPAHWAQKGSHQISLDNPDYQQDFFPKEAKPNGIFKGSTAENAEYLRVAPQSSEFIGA
TEST_SUMMARY: Cellular proliferation (Alamar Blue) assay, EGFR A767_dupASV Ba/F3
Assay type: cell-based
MEASUREMENT_PARAMETERS: EGFR A767_dupASV Ba/F3, 72 hr, read-out: A767 IC50

# COMPOUND, MEAS_VALUE
rows = [
    ("C=CC(=O)Nc1cccc(N2C(=O)N(c3ccccc3)Cc3cnc(Nc4cn(C5COC5)nc4Cl)nc32)c1 [Compound 136]", "15 nM"),
    ("Cc1nocc1Nc1ncc2c(n1)N(c1cccc(NC(=O)/C=C/CN(C)C)c1)C(=O)N(Cc1ccccc1)C2 [Compound 60]", "1700 nM"),
]

Documented GI50 of C=CC(=O)Nc1cccc(N2C(=O)N(Cc3ccccc3)Cc3cnc(Nc4cn(CC(F)(F)F)nc4C)nc32)c1 [Compound 6] : 9 nM

Documented GI50 of Cn1cc(Nc2ncc3c(n2)N(c2cccc(NC(=O)/C=C/CN4CCCCC4)c2)C(=O)N(Cc2ccccc2)C3)c(Cl)n1 [Compound 70] : 42 nM

Documented GI50 of CN(C)C/C=C/C(=O)N(C)c1cccc(N2C(=O)N(Cc3ccccc3)Cc3cnc(Nc4cn(C)nc4Cl)nc32)c1 [Compound 63] : 532 nM

Documented GI50 of CN(C)C/C=C/C(=O)Nc1ccc(Cl)c(N2C(=O)N(Cc3ccccc3)Cc3cnc(Nc4cn(C)nc4Cl)nc32)c1 [Compound 86] : 694 nM

Documented GI50 of C=CC(=O)Nc1cccc(N2C(=O)N(Cc3ccccc3)Cc3cnc(Nc4cnn(C)c4C)nc32)c1 [Compound 4] : 57 nM
